Test system: U2OS
Test details: Multiplex assay against U2OS
Assay type: toxicity, cell-based
Stated conditions: human, 24 h, 10 µM, compound concentration 10 uM, replicate 1
Non-standard residues stand in square brackets, D forms with d. Residues, ends and D or L forms follow the SMILES beside them.
Define the label as True when Total Cell Count is strictly less than 300 and as False in all remaining cases.

Compound: Cn1cc(C(=O)OCC2CCN(CCNS(C)(=O)=O)CC2)c2ccccc21
Test target: U2OS
Group label: True

Compound: Cl.Cl.OCCOCCN1CCN(C(c2ccccc2)c2ccc(Cl)cc2)CC1 (centres undefined) [HYDROXYZINE HYDROCHLORIDE]
Test target: U2OS
Group label: False

Compound: COc1ccc2[nH]c(I)c(CCNC(C)=O)c2c1 [IODOMELATONIN]
Test target: U2OS
Group label: True

Compound: CC(C)(C)c1ccc(CSc2cnn(C(C)(C)C)c(=O)c2Cl)cc1 [PYRIDABEN]
Test target: U2OS
Group label: True

Compound: COc1cc(C(=O)N2CC[C@@H](O)[C@@H](N)C2)cc2nc(-c3cc4ccccc4n3CC3CC3)n(C)c12.Cl
Test target: U2OS
Group label: True

Compound: CN(C)C/C=C/C(=O)Nc1ccc(C(=O)N2CCCC(Nc3ncc(Cl)c(-c4c[nH]c5ccccc45)n3)C2)cc1 (centres undefined)
Test target: U2OS
Group label: True

Compound: COc1cc2nc(N3CCN(C(=O)c4ccco4)CC3)nc(N)c2cc1OC.Cl [PRAZOSIN HYDROCHLORIDE]
Test target: U2OS
Group label: True

Compound: CN1CCN(c2ccc(Nc3c4ccccc4nc4ccccc34)cc2)CC1.Cl.Cl.O
Test target: U2OS
Group label: True

Compound: COCCCN1CCC(NC(=O)c2cc(Cl)c(N)c3c2OCC3)CC1 [PRUCALOPRIDE]
Test target: U2OS
Group label: True

Compound: OCCCNc1cc(-c2ccnc(Nc3cccc(Cl)c3)n2)ccn1
Test target: U2OS
Group label: True

Compound: CCC(=O)OCC(=O)[C@@]1(OC(=O)CC)[C@@H](C)C[C@H]2[C@@H]3CCC4=CC(=O)C=C[C@]4(C)[C@@]3(Cl)[C@@H](O)C[C@@]21C [BECLOMETHASONE DIPROPIONATE]
Test target: U2OS
Group label: True

Compound: O=c1ccc2ccc(OCCCCN3CCN(c4cccc5sccc45)CC3)cc2[nH]1 [BREXPIPRAZOLE]
Test target: U2OS
Group label: True

Compound: C[C@@H]1CC(=O)Nc2cccc(-c3ccc4c(c3)c(-c3cnn(C)c3)nn4C)c2N1
Test target: U2OS
Group label: True

Compound: CN(C)C(=O)Cn1cc(-c2ccc(-c3nnc4ccccn34)cc2)cn1
Test target: U2OS
Group label: False

Compound: CC(C)C[C@@H]1NC(=O)[C@@H](C(C)C)NC(=O)[C@@H]2CCCN2C(=O)[C@@H](CC(=O)O)NC(=O)[C@@H](Cc2c[nH]c3ccccc23)NC1=O [BQ-123] (cyclo(L[dW][dD]P[dV]))
Test target: U2OS
Group label: False

Compound: Cc1nn(C)c2nc(NNC(=O)Nc3cc(Cl)nc(Cl)c3)cc(C(C)C)c12
Test target: U2OS
Group label: True

Compound: C[C@H](NC(=O)CNC(=O)c1cccc(Cl)c1)c1ccccc1
Test target: U2OS
Group label: True

Compound: C=CCN1C[C@H](C(=O)N(CCCN(C)C)C(=O)NCC)C[C@@H]2c3cccc4[nH]cc(c34)C[C@H]21 [CABERGOLINE]
Test target: U2OS
Group label: True

Compound: CC(C)C[C@H](CO)Nc1nc(S[C@@H](C)c2ccccc2)nc2nc(N)sc12 [AZD-8797]
Test target: U2OS
Group label: True

Compound: Nc1nc(-c2ccco2)c2cnn(Cc3ccccc3F)c2n1
Test target: U2OS
Group label: True

Compound: Cc1ccc(OCC(O)C(C)NC(C)C)c2c1CCC2.Cl (centres undefined)
Test target: U2OS
Group label: True

Compound: COc1ccc2c(c1OCc1ccccc1)C[C@@H](C(=O)O)N(C(=O)C(c1ccccc1)c1ccccc1)C2 [OLODANRIGAN]
Test target: U2OS
Group label: False

Compound: N[C@](CC1c2ccccc2Oc2ccccc21)(C(=O)O)[C@H]1C[C@@H]1C(=O)O
Test target: U2OS
Group label: False

Compound: CCc1nn2c(C)cc(C)nc2c1Cc1ccc(-c2nnc(C3CCNCC3)o2)cc1
Test target: U2OS
Group label: True

Compound: CSc1nc(NC2CCCC2)c([N+](=O)[O-])c(NC2CCCC2)n1 [GS-39783]
Test target: U2OS
Group label: False

Compound: CCn1c(-c2nc3cc(C(=O)N4CCCC(N)C4)ccc3n2C)cc2ccccc21.Cl (centres undefined)
Test target: U2OS
Group label: True

Compound: Nc1nc(CC(=O)Nc2ccc(CCNC[C@H](O)c3ccccc3)cc2)cs1 [MIRABEGRON]
Test target: U2OS
Group label: False

Compound: O=C(NCCNCC(O)COc1ccc(O)cc1)N1CCOCC1.O=C(NCCNCC(O)COc1ccc(O)cc1)N1CCOCC1.O=C(O)/C=C/C(=O)O (centres undefined) [XAMOTEROL FUMARATE]
Test target: U2OS
Group label: True

Compound: COc1cc2nc(N3CCN(C(=O)COc4c(OC)cccc4C(C)C)CC3)nc(N)c2cc1OC.Cl.Cl
Test target: U2OS
Group label: True
